target-system: Neu5Ac(a2-6)GalNAc(b1-4)GlcNAc6S
assay-summary: glycan array binding signal (z-score within array); higher = stronger binding
details: glycan notation: IUPAC condensed, linker removed
Only a selection was taken, and the strongest signals are over-represented in it overall.
Measured glycan array binding signal (z-score) of individual entries
# output: bare number, no unit

Known results for binders:
>>> reading("BabA (Helicobacter pylori), O52269_HELPY (protein) AEDDGFYMSAGYQIGEAAQMVKNTKGIQELSDNYENLSNLLTRYSTLNTLIKLSADPSAVNAARENLGASAKNLIGDTKNSPAYQAVLLAINAAVGFWNVVGYVTQCGGNANGQKSTSSTTIFNNEPGYRSTSITCSLNGHMPGYYGPMSIENFKKLNEAYQILQTALKNGLPALKENNGTVNVTYSYTCSGEGNDNCSLQTTGVTNQNNGTKTETQTIDGKSVTTTISSKVVDSQ")
-0.637
>>> reading("Pwp6 (Candida glabrata) (protein) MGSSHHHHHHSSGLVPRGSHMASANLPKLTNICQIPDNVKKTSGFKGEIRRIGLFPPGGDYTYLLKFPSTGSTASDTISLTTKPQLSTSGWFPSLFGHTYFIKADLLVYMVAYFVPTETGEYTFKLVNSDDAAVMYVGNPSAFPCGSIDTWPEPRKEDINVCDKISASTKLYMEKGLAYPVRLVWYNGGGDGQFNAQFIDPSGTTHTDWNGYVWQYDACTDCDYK")
0.14
>>> reading("Pwp2 (Candida glabrata) (protein) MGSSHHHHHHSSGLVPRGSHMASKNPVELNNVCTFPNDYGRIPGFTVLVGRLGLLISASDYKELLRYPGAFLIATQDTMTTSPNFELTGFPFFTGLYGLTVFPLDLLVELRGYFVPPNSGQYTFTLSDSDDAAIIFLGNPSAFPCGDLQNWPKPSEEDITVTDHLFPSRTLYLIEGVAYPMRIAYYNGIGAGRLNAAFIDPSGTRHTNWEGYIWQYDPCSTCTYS")
4.86
>>> reading("SJCP1531 (Schistosoma japonicum) (protein) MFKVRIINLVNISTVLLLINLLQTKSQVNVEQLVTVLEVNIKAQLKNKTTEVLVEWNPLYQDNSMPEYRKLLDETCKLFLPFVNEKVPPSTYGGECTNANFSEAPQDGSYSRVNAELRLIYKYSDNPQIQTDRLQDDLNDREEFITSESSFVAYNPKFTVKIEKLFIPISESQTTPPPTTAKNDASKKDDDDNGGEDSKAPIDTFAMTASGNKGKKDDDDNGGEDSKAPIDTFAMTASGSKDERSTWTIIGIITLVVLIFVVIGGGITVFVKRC")
0.413
>>> reading("Epa12 (Candida glabrata) (protein) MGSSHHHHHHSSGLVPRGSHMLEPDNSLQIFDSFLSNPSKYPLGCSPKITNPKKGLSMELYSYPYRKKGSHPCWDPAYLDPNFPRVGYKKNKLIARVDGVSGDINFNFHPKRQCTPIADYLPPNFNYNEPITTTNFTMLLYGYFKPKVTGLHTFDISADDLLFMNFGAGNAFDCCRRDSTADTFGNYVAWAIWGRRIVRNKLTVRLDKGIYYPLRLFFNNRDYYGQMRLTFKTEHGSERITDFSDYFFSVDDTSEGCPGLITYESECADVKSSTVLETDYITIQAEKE")
-0.36
>>> reading("SpnanA (Streptococcus pneumoniae), P62575 (protein) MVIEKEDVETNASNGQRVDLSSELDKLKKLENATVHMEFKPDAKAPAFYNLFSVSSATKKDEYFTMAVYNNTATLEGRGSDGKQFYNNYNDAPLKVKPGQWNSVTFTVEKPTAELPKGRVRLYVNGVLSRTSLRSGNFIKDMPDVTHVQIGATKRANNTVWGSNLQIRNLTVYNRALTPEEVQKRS")
-0.062
>>> reading("AFL5 (Aspergillus fumigatus), Q4WB00 (protein) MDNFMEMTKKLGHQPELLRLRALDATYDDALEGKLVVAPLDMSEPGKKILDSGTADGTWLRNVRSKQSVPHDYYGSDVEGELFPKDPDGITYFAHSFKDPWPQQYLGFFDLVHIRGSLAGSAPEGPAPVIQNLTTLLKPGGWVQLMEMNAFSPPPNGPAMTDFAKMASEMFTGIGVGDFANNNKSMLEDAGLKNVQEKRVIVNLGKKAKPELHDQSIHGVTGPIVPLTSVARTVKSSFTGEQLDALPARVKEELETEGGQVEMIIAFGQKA")
0.024
>>> reading("Epa3to1 (Candida glabrata) (protein) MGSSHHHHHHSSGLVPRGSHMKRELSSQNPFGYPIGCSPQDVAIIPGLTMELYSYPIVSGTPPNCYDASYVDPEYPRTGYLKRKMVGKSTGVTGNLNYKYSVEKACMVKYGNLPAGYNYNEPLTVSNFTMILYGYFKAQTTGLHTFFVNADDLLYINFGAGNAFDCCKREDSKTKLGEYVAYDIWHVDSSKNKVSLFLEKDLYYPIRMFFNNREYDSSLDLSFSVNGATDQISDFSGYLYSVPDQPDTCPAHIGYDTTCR")
-0.365

In the following, a different binder is considered.
Task item: Identify measured glycan array binding signal (z-score) associated with Aap lectin (Staphylococcus epidermidis) (protein) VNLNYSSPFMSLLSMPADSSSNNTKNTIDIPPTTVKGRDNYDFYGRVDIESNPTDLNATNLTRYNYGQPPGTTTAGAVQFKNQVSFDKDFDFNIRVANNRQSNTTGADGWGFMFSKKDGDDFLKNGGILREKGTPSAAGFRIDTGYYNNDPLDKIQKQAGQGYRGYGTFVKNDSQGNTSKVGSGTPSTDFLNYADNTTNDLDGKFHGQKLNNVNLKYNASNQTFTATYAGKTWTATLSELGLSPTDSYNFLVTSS
Reply: -1.16

Provenance of the data: the supplement of paper PMC8728848
